Tested on: SR leukemia
assay-details: NCI tumour cell line growth inhibition, 48 h
Collected TGI values appear next to each entry.

Below are worked cases with known answers.
compound | recorded-value
CC(=O)[C@]1(C)[C@H](C)O[C@](C)(CO)[C@H]1O[Si](C)(C)c1ccccc1 | > 100 µM
CCCC(=O)Nc1ncnc2c1ncn2C1OC2COP(=O)(O)OC2C1OC(=O)CCC (stereo not given) | > 1000 µM
Cc1ccc(C(=O)c2[nH]c(Nc3ccc(Cl)cc3)c(C(=S)Nc3ccccc3)c2N)cc1 | 10.7 µM
COc1ccc2[nH]cc(CN3CCC(CO)(c4ccccc4)CC3)c2c1 | 52.8 µM

Name the value of TGI reported for CN1CCc2cc(O)c3cc2C1Cc1ccc(cc1)Oc1cc(ccc1O)CC1c2c(cc4c(c2O3)OCO4)CCN1C (stereo not given) when tested on SR leukemia.
> 100 µM

---

System: COLO 205 colon
assay-details: NCI tumour cell line growth inhibition, 48 h
parameter-measured: TGI (µM)
The reply should be a number in µM, with the unit left off.

Below are worked cases with known answers.
compound | TGI, µM
O=C1c2ccccc2CCC1(Br)Br | 2.06
CCCCCCCSCC1OC(n2cnc3c(N)ncnc32)C(O)C1O (configuration not stated) | 28.3

# next compound below
Report measured TGI; entry is C/C=C1\C[C@@H]2C(OC)Nc3cc(O)c(OC)cc3C(=O)N2C1 (some centres not stated)
0.0212

---

System: SNB-75 CNS
assay-details: NCI tumour cell line growth inhibition, 48 h
parameter-measured: TGI (µM)
The reply should be a number in µM, with the unit left off.

compound | recorded-value
CN1CCN(CCCOc2ccc3nc(Nc4ccc(C(F)(F)F)c(Cl)c4)ccc3c2)CC1 | 2.94
C/C=C/C=C\C(=O)C1c2cccc(O)c2C(=O)c2c(O)cc(C)cc21 (stereo not given) | 2.74

# next compound below
Name the value of TGI reported for `COc1ccc2[nH]cc(CN3CCC(CO)(c4ccccc4)CC3)c2c1` when tested on SNB-75 CNS.
87.6

---

Collected TGI values appear next to each entry.
System: SNB-19 CNS
assay-details: NCI tumour cell line growth inhibition, 48 h

Below are worked cases with known answers.
compound | parameter-measured | recorded-value
COCO[C@@H]1CC2C=Nc3cc(OCc4ccccc4)c(OC)cc3C(=O)N2C1 (stereo partly drawn) | TGI | 44.6 µM
Nc1nc(Cl)nc2c1ncn2C1CCC(COP(=O)(O)OP(=O)(O)OP(=O)(O)O)O1 (stereo not drawn) | TGI | > 100 µM

# next compound below
Report measured TGI; entry is `O=[N+]([O-])c1ccc(NN=C2c3ccccc3Cc3ccccc32)c([N+](=O)[O-])c1`
> 100 µM

---

System: OVCAR-3 ovarian
assay-details: NCI tumour cell line growth inhibition, 48 h
Collected TGI values appear next to each entry.

Below are worked cases with known answers.
molecule | TGI
NS(=O)(=O)c1ccc(N=Nc2nc3[nH]cnc(=S)c3[nH]2)cc1 | > 22.5 µM
CCOc1ccc(N=Nc2c(-c3ccccc3)nn(C(=O)CC(=O)Nc3cccc(C)c3)c2-c2ccccc2)cc1 | > 100 µM
Cc1cccc2c1ccc1c3occ(C)c3c(=O)oc21 | > 100 µM

Report measured TGI; entry is `Cc1nc2ccc(S(=O)(=O)Nc3ccccc3Cl)cc2c(=O)n1NC(=O)CNc1ccccc1Cl`
> 100 µM

Report measured TGI; entry is `N#CC(C#N)=Cc1ccc(Oc2ccccc2)cc1`
> 100 µM

Report measured TGI; entry is `CCOC(=O)NC(C(C(=O)OCC)C(=O)OCC)(C(F)(F)F)C(F)(F)F`
> 100 µM
